Consider the following molecules and their measured Population Apoptotic (%) readings.
test system: U2OS; experiment: Multiplex assay against U2OS; type: toxicity, cell-based; settings: human, 12 h, 10 µM, compound concentration 10 uM, replicate 1
OBSERVATION_TYPE: Population Apoptotic (%)

MOLECULE	OBSERVATION_TYPE	OBSERVED_MEASUREMENT
O=C(Cc1ccc(-c2ccc(OCCN3CCOCC3)cc2)cn1)NCc1ccccc1	Population Apoptotic (%)	21
Cn1nc(C(=O)NCc2ccc(C(=O)O)cc2)cc1-c1ccc2[nH]ccc2c1	Population Apoptotic (%)	42
COCC(=O)NC/C=C/c1ccc2ncnc(Nc3ccc(Oc4ccc(C)nc4)c(C)c3)c2c1	Population Apoptotic (%)	51
COc1cccc2cc(-c3nc([C@H]4CC[C@H](C(=O)O)CC4)n4ncnc(N)c34)[nH]c12	Population Apoptotic (%)	8
CCN1CCN(Cc2ccc(Nc3ncc(F)c(-c4cc(F)c5nc(C)n(C(C)C)c5c4)n3)nc2)CC1.CS(=O)(=O)O	Population Apoptotic (%)	82
S=C(NCCCc1c[nH]cn1)NCCCN(Cc1ccc(Cl)c(Cl)c1)c1ccc(Br)cn1	Population Apoptotic (%)	88
CCCS(=O)(=O)c1nc(NC2CC2)cc(-c2ccc3c(ccn3C3CC(C)(C)NC(C)(C)C3)c2)n1	Population Apoptotic (%)	86
C=C1/C(=C\C=C2/CCC[C@]3(C)[C@@H]([C@H](C)/C=C/[C@H](C)C(C)C)CC[C@@H]23)C[C@@H](O)C[C@@H]1O	Population Apoptotic (%)	36
Cl.Oc1ccc2c3c1O[C@H]1c4[nH]c5c(c4C[C@@]4(O)[C@@H](C2)N(CC2CC2)CC[C@]314)C[C@@]1(O)[C@H]2Cc3ccc(O)c4c3[C@@]1(CCN2CC1CC1)[C@H]5O4	Population Apoptotic (%)	57
CCc1cccc(CC)c1NC(=O)c1nn(C)c2c1CCc1cnc(Nc3ccc(N4CCN(C)CC4)cc3OC)nc1-2	Population Apoptotic (%)	26
O=C(Nc1ccc(-c2ccnc(Nc3ccc(N4CCOCC4)cc3)n2)cc1)[C@@H]1CCCN1	Population Apoptotic (%)	62
Cc1cn(-c2cc(NC(=O)c3ccc(C)c(Nc4nccc(-c5cccnc5)n4)c3)cc(C(F)(F)F)c2)cn1	Population Apoptotic (%)	86
CN1CCN(C(=O)C(C)(C)c2ccc(C(=O)Nc3cn4cc(-c5cc(C(C)(C)C)cc(C(C)(C)C)c5)ccc4n3)cc2)CC1	Population Apoptotic (%)	27
O=C(Nc1ccc(Cl)cc1)Nc1cccc(-c2cccc(N3CCCC3)n2)c1	Population Apoptotic (%)	58
O=C(Nc1ccc(-n2nc(-c3cccnc3)cc2C(F)(F)F)cn1)c1ccc(-c2ccccc2)c(F)c1	Population Apoptotic (%)	30
CCCS(=O)(=O)Nc1ccc(F)c(C(=O)c2c[nH]c3ncc(Cl)cc23)c1F	Population Apoptotic (%)	50
CCCn1c(=O)c2[nH]c(-c3cnn(Cc4cccc(C(F)(F)F)c4)c3)nc2n(CC)c1=O	Population Apoptotic (%)	35
O=C1NC(=O)C(c2cnc3ccccn23)=C1c1cn2c3c(cc(F)cc13)CN(C(=O)N1CCCCC1)CC2	Population Apoptotic (%)	60
C=CCn1c(=O)c2cnc(Nc3ccc(N4CCN(C)CC4)cc3)nc2n1-c1cccc(C(C)(C)O)n1	Population Apoptotic (%)	40
Cn1nc(C(F)(F)F)cc1-c1cnc(N2CCc3cc(S(=O)(=O)Nc4c(F)cc(Cl)cc4F)cc(N4CCCC4=O)c32)nc1	Population Apoptotic (%)	50
CCOc1cc(C(=O)N2CCC(N3CCN(C)CC3)CC2)ccc1Nc1ncc2c(n1)N(C1CCCC1)c1ccccc1C(=O)N2C	Population Apoptotic (%)	83
COc1cc(N2CCN(C)CC2)ccc1Nc1ncc2c(n1)N(C)c1ccccc1C(=O)N2C	Population Apoptotic (%)	60
CN1C2CCC1CC(OC(c1ccc(F)cc1)c1ccc(F)cc1)C2.Cl (configuration not stated)	Population Apoptotic (%)	56
CCn1c(=O)c(-c2ccc(-c3cncs3)cc2Cl)cc2cnc(Nc3ccc(N4CCN(C)CC4)cc3)nc21	Population Apoptotic (%)	84
CN(C)C(=O)C(CCN1CCC(O)(c2ccc(Cl)cc2)CC1)(c1ccccc1)c1ccccc1.Cl [LOPERAMIDE HYDROCHLORIDE]	Population Apoptotic (%)	66
COC(=N)c1nc2ccc3ncnc(Nc4ccc(OC)cc4F)c3c2s1	Population Apoptotic (%)	37
NC(=O)c1cccc(-c2cc(Nc3ccc(OC(F)(F)F)cc3)ncn2)c1	Population Apoptotic (%)	56
CCOC(=O)c1c(C)[nH]c2ccc3c(c12)CN1CCc2cc(OC)ccc2C1O3 (configuration not stated)	Population Apoptotic (%)	73
Cl.O=c1c2cccn2c2ccccc2n1CCCN1CCC(c2ccc(Cl)cc2)CC1	Population Apoptotic (%)	81
CCc1cccc(CC)c1NC(=O)c1nn(C)c2c1CCc1cnc(Nc3ccc(C(=O)NC4CCN(C)CC4)cc3OC(F)(F)F)nc1-2	Population Apoptotic (%)	50
COc1cc2ncnc(Nc3ccc(F)c(Cl)c3)c2cc1NC(=O)/C=C/CN1CCCCC1 [DACOMITINIB ANHYDROUS]	Population Apoptotic (%)	0
Cc1cc(C)c(S(=O)(=O)N(Cc2ccc(-c3cccc(S(C)(=O)=O)c3)cc2)Cc2ccc(C(F)(F)F)o2)c(C)c1	Population Apoptotic (%)	31
